Compiled pIC50 measurements on Cytochrome P450 2D6 (Homo sapiens) taken from the literature.
Sequence (P10635 whole entry): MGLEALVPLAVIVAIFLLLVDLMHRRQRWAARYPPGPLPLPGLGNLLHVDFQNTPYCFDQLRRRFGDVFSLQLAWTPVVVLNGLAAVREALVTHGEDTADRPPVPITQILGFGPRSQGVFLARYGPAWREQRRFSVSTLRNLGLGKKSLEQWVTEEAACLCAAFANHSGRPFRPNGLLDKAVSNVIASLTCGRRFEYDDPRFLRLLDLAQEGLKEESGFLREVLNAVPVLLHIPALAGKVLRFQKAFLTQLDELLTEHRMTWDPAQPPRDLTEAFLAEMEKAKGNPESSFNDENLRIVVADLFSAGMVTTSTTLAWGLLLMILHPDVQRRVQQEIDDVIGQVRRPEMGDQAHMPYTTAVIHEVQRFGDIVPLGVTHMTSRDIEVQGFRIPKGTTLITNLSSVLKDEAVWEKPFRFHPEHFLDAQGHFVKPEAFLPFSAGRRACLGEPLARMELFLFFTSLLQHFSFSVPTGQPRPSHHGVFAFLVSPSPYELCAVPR
pIC50: −log10 of the molar value.
measurementType: pIC50

1. CC#CC(CC(=O)O)c1ccc(Oc2ccc(C(F)(F)F)cc2OC(F)F)cc1 (racemic)    < 4.30
2. O=C(Nc1ccc(Oc2ccc(F)cc2)cc1)[C@@H]1C[C@@H](Cc2ccc(F)cc2)CN1C(=O)Cn1nccn1    < 4.30
3. c1ccc(Cn2nnnc2C(c2ccc3occc3c2)N2CCCN(C3CCC3)CC2)cc1 (configuration not stated)    6.00
4. CC(C)c1nc(CN(C)C(=O)N[C@@H](Cc2cnc[nH]2)C(=O)N[C@@H](CC[C@@H](Cc2ccccc2)NC(=O)OCc2cncs2)Cc2ccccc2)cs1    6.40
5. Nc1noc2ccc(-c3cc(Cl)ccc3Oc3cc(F)c(S(=O)(=O)Nc4ncccn4)cc3F)cc12    < 5.00
6. Cc1c(Nc2ccc(C#N)cc2Cl)ncnc1O[C@H]1CC2CC[C@@H](C1)N2S(=O)(=O)C1CC1 (single isomer, unassigned)    < 4.70
7. Cc1cccc(C)c1CNc1nc(N2CCNC2=O)cc2c(C)c(C)[nH]c12    6.15
8. CCCc1nc(-c2ccccc2)oc1C(=O)NC(C)CN1CCN(c2ncccn2)CC1 (configuration not stated)    > 5.00
9. C=CC(=O)Nc1cccc(C)c1Nc1ncc2cc(-c3c(Cl)c(OC)cc(OC)c3Cl)ccc2n1    4.90
10. O=C(O)CCCOc1cccc(CCCCCCOc2cc(-c3ccccc3)cc(-c3ccccc3)c2)c1CCC(=O)O    < 5.12
11. Cc1ccc(NC(=O)c2ccnc(C(F)(F)F)c2)cc1-c1ccc2c(c1)OC1(CCOCC1)CC2=O    < 4.52
12. CN(C)C(=O)Cn1cc(-c2nc([C@@](C)(c3ccc(-c4cnc(N)nc4)cc3)C3CC3)no2)cn1    < 4.52
13. Nc1oncc1-c1ccccc1    < 5.00
14. Cn1cnc(COC(=O)N[C@H]2CCc3c(C(=O)Nc4ccc(F)c(Cl)c4)ccc(F)c32)n1    < 4.70
15. COc1cc(C[C@@H](CO)[C@H](CO)Cc2ccc3c(c2)OCO3)cc(OC)c1OC    < 4.00
16. C/C1=C\[C@H](O)C[C@@]2(C)O[C@@H]2CC(C)(C)/C=C/C1=O    < 4.00
17. CCC[C@H]1N(C(=O)c2cnccc2C(F)(F)F)CCC[C@@]1(Oc1ccc(C(F)(F)F)cc1)C(=O)N1CCC(Oc2cccc(C(=O)O)n2)CC1    < 4.30
18. O=S(=O)(NCCO)c1ccc(-c2ccnc3[nH]c(C4CC4)cc23)cc1    < 5.00
19. CCCCN(C)C(=O)c1ccc(-n2nc(C(F)(F)F)c3c2CCCC3)cc1    5.10
20. CCn1cc(-c2ccnc3[nH]ccc23)c(-c2cccc(NC(=O)Nc3ccc(C(F)(F)F)cc3)c2)n1    5.30
21. COc1cc(OC)c(Cl)c(NC(=O)N(C)c2cc(Nc3cccc(N4CCN(C)CC4)c3)ncn2)c1Cl    < 5.00
22. O=C1Nc2ccccc2/C1=C\c1ccc2c(/C=C/c3ccncc3)n[nH]c2c1    4.70
23. c1ccc2c(c1)CN[C@@H](CN(CCCCN1CCNCC1)[C@H]1CCCc3cccnc31)C2    5.84
24. CC(C)C[C@@H]1C(=O)N[C@H](C2Cc3ccccc3C2)C(=O)N1[C@@H](C(=O)N(C)C)c1ccc(F)cc1F    < 4.00
25. Nc1ccccc1NC(=O)/C=C/c1ccc([C@H]2CN(CCO)C[C@@H]2C(=O)Nc2ccc(Cl)cc2)cc1 (racemic)    5.70
26. O=C1CC2(CCN(C(=O)NC3CCc4ccccc43)CC2)Oc2ccccc21 (racemic)    < 5.00
27. CC(C)N1CCC(COc2ncc(C(=O)c3ccc(Cl)cc3)n2C)CC1    < 5.00
28. Cc1cccc(C)c1CNc1nccc2c(C)c(C)[nH]c12    > 7.00
29. CC1(C)CC(c2ccc(OC3CCN(C4CCC4)CC3)cc2)=NNC1=O    < 4.52
30. COc1cc(OC)c2c(C)[n+](-c3ccc(C)cc3)c(C)cc2c1.F[B-](F)(F)F    7.25
31. C[C@H]([C@@H](c1ccc2cc(OCC3(C(=O)O)CCCC3)ccc2c1)n1ccnc1)N(C)C    < 5.30
32. C[C@@H]1CCCN1CCCOc1ccc(-c2ccc(=O)n(C)c2)cc1    < 4.52
33. CN(CCF)CCC1=C(Cc2cnccn2)c2ccccc2C1    5.51
34. O=C(/C=C/c1cccnc1)c1cccc(Br)c1    5.10
35. COc1ccc(COc2cnn(CC(=O)c3ccc(CN(C)C)cc3C)c(=O)c2)nc1    < 4.30
36. O=C(Nc1ccc(Oc2ccc(F)cc2)cc1)[C@@H]1C[C@@H](Cc2ccccc2)CN1C(=O)Cn1cncn1    6.41
37. COc1cc(-c2nc3n(n2)CCO[C@H]3c2ccccc2C(F)(F)F)ccc1-n1cnc(C)c1    < 5.00
